assay: Solubility in fasted simulated intestinal fluid at pH 6.5; format: physicochemical
endpoint: solubility (µg/mL)
Give your result in µg/mL as a bare value.

Item under review: CCCS(=O)(=O)N1CCN(c2ccc(OCC3CCN(C(=O)OC(C)C)CC3)cn2)CC1 . Reported solubility?
3.41

* * *

test system: Mus musculus; experiment: Clearance in mouse at 3 mg/kg, iv; assay type: ADME, organism-based; set-up: dose 3 mg/kg, route intravenous; conditions: in vivo
endpoint: clearance (mL/min/kg)
Give your result in mL/min/kg as a bare value.

Item under review: CCCS(=O)(=O)N1CCN(c2ccc(OCC3CCN(C(=O)OC(C)C)CC3)cn2)CC1 . Reported clearance?
15.7

* * *

assay: Volume of distribution at steady state in mouse at 3 mg/kg, iv; assay type: ADME, organism-based; design: dose 3 mg/kg, route intravenous; details: in vivo, read-out: Vdss
endpoint: Vd (L/kg)
Give your result in L/kg as a bare value.

Item under review: CCCS(=O)(=O)N1CCN(c2ccc(OCC3CCN(C(=O)OC(C)C)CC3)cn2)CC1 . Reported Vd?
0.76

* * *

biological target: Glucose-dependent insulinotropic receptor (Homo sapiens); test: Agonist activity at human GPR119 receptor by cAMP mobilization assay; type: functional
endpoint: EC50
Number first, unit second.

Item under review: O=[N+]([O-])c1c(Nc2ccc(-n3cncn3)cc2)ncnc1N1CCC(Sc2ccccn2)CC1 . Reported EC50?
130 nM

* * *

test: AUC (0 to 24) in mouse at 3 mg/kg, iv; assay type: ADME, organism-based; parameters: time < 24 hr, dose 3 mg/kg, route intravenous; conditions: plasma
endpoint: AUC at 24 h (ng·h/mL)
Give your result in ng·h/mL as a bare value.

Item under review: CCCS(=O)(=O)N1CCN(c2ccc(OCC3CCN(C(=O)OC(C)C)CC3)cn2)CC1 . Reported AUC at 24 h?
3130

* * *

target: Glucose-dependent insulinotropic receptor (Homo sapiens); assay: Agonist activity at human GPR119 receptor expressed in CHO-K1 cells co-transfected with 6CRE-Luc after 5 hrs by luciferase reporter gene assay; type: functional, cell-based
endpoint: pEC50
# pEC50 is unitless: minus log10 of the molar concentration; print number only

Recorded pEC50, per entry:
CCCS(=O)(=O)N1CCN(c2ccc(OCC3CCN(C(=O)c4ccco4)CC3)cn2)CC1: 5.70
CC(C)OC(=O)N1CCC(COc2ccc(N3CCN(S(=O)(=O)C(C)C)CC3)nc2)CC1: 6.52
CCCS(=O)(=O)N1CCN(c2ccc(OCC3CCN(C(=O)OC(C)C)CC3)cn2)CC1: 6.52
CC(C)OC(=O)N1CCC(COc2ccc(N3CCN(S(=O)(=O)N4CCCCC4)CC3)nc2)CC1: 6.00
CC(C)OC(=O)N1CCC(COc2ccc(N3CCN(C(=O)c4ccco4)CC3)nc2)CC1: 5.72

Item under review: CCCS(=O)(=O)N1CCN(c2ccc(OCCC3CCN(C(=O)OC(C)C)CC3)cn2)CC1 . Reported pEC50?
6.15

Do the same for CCCS(=O)(=O)N1CCN(c2ccc(OCC3CCN(C(=O)Nc4ccc(C(C)C)cc4)CC3)cn2)CC1 please
6.05

* * *

target: Glucose-dependent insulinotropic receptor (Homo sapiens, UniProt Q8TDV5); assay: Agonist activity at human GPR119 receptor expressed in CHO-K1 cells co-transfected with 6CRE-Luc after 5 hrs by luciferase reporter gene assay; format: functional, cell-based
Sequence (Q8TDV5 whole entry): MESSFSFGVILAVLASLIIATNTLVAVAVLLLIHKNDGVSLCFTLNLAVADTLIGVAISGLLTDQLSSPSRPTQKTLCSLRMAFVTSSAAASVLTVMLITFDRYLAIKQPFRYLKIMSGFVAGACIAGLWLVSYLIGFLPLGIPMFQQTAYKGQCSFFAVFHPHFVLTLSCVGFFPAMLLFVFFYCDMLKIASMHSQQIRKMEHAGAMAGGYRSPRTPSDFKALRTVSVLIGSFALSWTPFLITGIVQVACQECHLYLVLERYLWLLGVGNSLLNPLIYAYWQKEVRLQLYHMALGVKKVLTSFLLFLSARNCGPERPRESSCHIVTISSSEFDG
endpoint: EC50 (nM)
Give your result in nM as a bare value.

Recorded EC50, per entry:
CCS(=O)(=O)N1CCN(c2ccc(OCC3CCN(C(=O)OC(C)C)CC3)cn2)CC1: 1300
CCCS(=O)(=O)N1CCN(c2ccc(OCC3CCN(C(=O)C(F)F)CC3)cn2)CC1: 2100
CCCS(=O)(=O)N1CCN(c2ccc(OCC3CCN(C(=O)CC(C)(C)C)CC3)cn2)CC1: 2800

Item under review: CC(C)OC(=O)N1CCC(COc2ccc(N3CCN(S(=O)(=O)CC4CCCCC4)CC3)nc2)CC1 . Reported EC50?
90
